- assay target: ABHD6 (Mus musculus)
- Construct: Proteomes (mouse brain membrane fraction or cell lysates); from tissue; host or cells: mouse brain membrane fraction or cell lysates
- Sequence (Q8R2Y0 whole entry): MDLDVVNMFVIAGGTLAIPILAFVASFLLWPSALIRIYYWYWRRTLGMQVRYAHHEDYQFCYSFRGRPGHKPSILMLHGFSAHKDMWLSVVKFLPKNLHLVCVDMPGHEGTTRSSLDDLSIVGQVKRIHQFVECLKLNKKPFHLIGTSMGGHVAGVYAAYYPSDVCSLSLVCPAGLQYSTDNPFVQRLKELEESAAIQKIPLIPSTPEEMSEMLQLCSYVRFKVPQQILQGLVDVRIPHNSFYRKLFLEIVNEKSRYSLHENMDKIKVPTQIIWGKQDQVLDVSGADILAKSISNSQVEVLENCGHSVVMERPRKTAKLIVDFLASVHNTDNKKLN
- test description: In vitro competitive activity-based protein profiling (mouse), ABHD6
- Assay type: biochemical
- test conditions: 1 μM inhibitor, mouse brain membrane fraction or cell lysates; read-out: ABHD6 % inh. 1 μM (mouse)
property: inhibition at 1 µM

Take a look at these entries with their results.
| compound | assay target | inhibition at 1 µM |
| --- | --- | --- |
| N#Cc1ccc(CN2CCN(C(=O)OC(C(F)(F)F)C(F)(F)F)CC2)c(C2(C(=O)O)CCCC2)c1 [Example 30] | ABHD6 (Mus musculus) | 0 to 25% |
| O=C(O)CN1CCC2(C1)CN(c1cc(Cl)ccc1CN1CCN(C(=O)OC(C(F)(F)F)C(F)(F)F)CC1)C2 [Example 48] | ABHD6 (Mus musculus) | 0 to 25% |
| O=C(O)C1CCN(c2c(CN3CCN(C(=O)OC(C(F)(F)F)C(F)(F)F)CC3)ccc(Cl)c2F)CC1 [Example 62] | ABHD6 (Mus musculus) | 50 to 75% |
| O=C(O)[C@@H]1CCCN(c2cc(C(F)(F)F)ccc2CN2CCN(C(=O)OC(C(F)(F)F)C(F)(F)F)CC2)C1 [Example 70] | ABHD6 (Mus musculus) | 0 to 25% |
| CC1(C(=O)O)CCN(c2cc(C(F)(F)F)ccc2CN2CCN(C(=O)OC(C(F)(F)F)C(F)(F)F)CC2)C1 (stereo not drawn) [Example 55] | ABHD6 (Mus musculus) | ≥ 75% |

## Task Tell me the measured inhibition at 1 µM of CC1(C(=O)O)CN(c2cc(C(F)(F)F)ccc2CN2CCN(C(=O)OC(C(F)(F)F)C(F)(F)F)CC2)CCO1 (stereo not drawn) [Example 57] , please.
## Result 0 to 25%

## Task Then what about the compound O=C(OC(C(F)(F)F)C(F)(F)F)N1CCN(Cc2ccc(F)cc2C2(C(=O)O)CCCC2)CC1 [Example 40] ?
## Result 0 to 25%

## Task Then what about the compound O=C(O)C1CCCCN1c1cc(C(F)(F)F)ccc1CN1CCN(C(=O)OC(C(F)(F)F)C(F)(F)F)CC1 (stereo not drawn) [Example 65] ?
## Result 0 to 25%

## Task Then what about the compound O=C(O)C1CCN(c2ccc(CN3CCN(C(=O)OC(C(F)(F)F)C(F)(F)F)CC3)cc2)CC1 [Example 77] ?
## Result ≥ 75%

## Task Then what about the compound O=C(O)CN1CCCC1C1CCN(c2cc(Cl)ccc2CN2CCN(C(=O)OC(C(F)(F)F)C(F)(F)F)CC2)CC1 (stereo not drawn) [Example 34] ?
## Result 50 to 75%

## Task Then what about the compound O=C(OC(C(F)(F)F)C(F)(F)F)N1CCN(Cc2ccccc2C2(C(=O)O)CCCC2)CC1 [Example 36] ?
## Result 0 to 25%

## Task Then what about the compound O=C(O)CN1CCCC12CN(c1cc(C(F)(F)F)ccc1CN1CCN(C(=O)OC(C(F)(F)F)C(F)(F)F)CC1)C2 [Example 24] ?
## Result 0 to 25%

## Task Then what about the compound O=C(O)CN1CCC(c2cc(C(F)(F)F)ccc2CN2CCN(C(=O)OC(C(F)(F)F)C(F)(F)F)CC2)C1 (stereo not drawn) [Example 2] ?
## Result 0 to 25%

## Task Then what about the compound O=C(O)C1CCN(C(=O)c2cc(C(F)(F)F)ccc2CN2CCN(C(=O)OC(C(F)(F)F)C(F)(F)F)CC2)CC1 [Example 35] ?
## Result 0 to 25%

## Task Then what about the compound Cc1ccc(CN2CCN(C(=O)OC(C(F)(F)F)C(F)(F)F)CC2)c(C2(C(=O)O)CCCC2)c1 [Example 14] ?
## Result 0 to 25%
